These data points were gathered from ChEMBL document CHEMBL4819064.

- Assay Method Text: Selectivity index, ratio of IC50 for human MRC5 cells to IC50 for human MCF7 cells
- Assay type: toxicity
- Condition Summary: MRC5 cells versus MCF7 cells, read-out: Ratio IC50
Note to self: class labels come from recorded selectivity ratio, ranges listed here: Low: < 1; Medium: ≥ 1 and < 8; High: ≥ 8

(Q) Quick check: band for `O=C(Nc1ccc(F)cc1)c1c2nc[nH]c(=O)c2c2n1CCC2`
(A) Low

(Q) Quick check: band for `N#Cc1c2n(c3c(=O)n(-c4ccc(F)cc4)c(=O)[nH]c13)CCC2`
(A) Low

(Q) Quick check: band for `N#Cc1c2n(c3c(=O)n(-c4ccc(Br)cc4)cnc13)CCCC2`
(A) High

(Q) Quick check: band for `N#Cc1c2n(c3c(=O)n(-c4ccc(F)cc4)cnc13)CCC2`
(A) High

(Q) Quick check: band for `COc1ccc(-n2c(=O)[nH]c3c(C#N)c4n(c3c2=O)CCC4)cc1`
(A) Low

(Q) Quick check: band for `COc1ccc(N2CC(=O)Nc3c(C#N)c4n(c3C2=O)CCC4)cc1`
(A) Medium

(Q) Quick check: band for `N#Cc1c2c(n3c1CCC3)C(=O)N(c1ccc(F)cc1)CC(=O)N2`
(A) Medium

(Q) Quick check: band for `Cc1nc2c(C#N)c3n(c2c(=O)n1-c1ccc(Br)cc1)CCCC3`
(A) Medium

(Q) Quick check: band for `Cc1nc2c(C#N)c3n(c2c(=O)n1-c1ccc(F)cc1)CCC3`
(A) High

(Q) Quick check: band for `Cc1nc2c(C#N)c3n(c2c(=O)n1-c1ccc(Cl)cc1)CCCC3`
(A) Low

(Q) Quick check: band for `N#Cc1c2n(c3c(=O)n(-c4ccccc4)cnc13)CCCC2`
(A) Medium

(Q) Quick check: band for `COc1ccc(NC(=O)c2c3nc[nH]c(=O)c3c3n2CCC3)cc1`
(A) Medium

(Q) Quick check: band for `N#Cc1c2n(c3c(=O)n(-c4ccc(Cl)cc4)cnc13)CCCC2`
(A) Medium

(Q) Quick check: band for `Cc1nc2c(C#N)c3n(c2c(=O)n1-c1ccccc1)CCCC3`
(A) Medium

(Q) Quick check: band for `COc1ccc(-n2c(C)nc3c(C#N)c4n(c3c2=O)CCC4)cc1`
(A) High

---

- Assay Method Text: Selectivity index, ratio of IC50 for human MRC5 cells to IC50 for human HT29 cells
- Format: toxicity
- Condition Summary: MRC5 cells versus HT29 cells, read-out: Ratio IC50
Note to self: class labels come from recorded selectivity ratio, ranges listed here: LOW: < 0.7; MEDIUM: ≥ 0.7 and < 20; HIGH: ≥ 20

(Q) Quick check: band for `COc1ccc(-n2c(C)nc3c(C#N)c4n(c3c2=O)CCC4)cc1`
(A) HIGH

(Q) Quick check: band for `COc1ccc(-n2cnc3c(C#N)c4n(c3c2=O)CCC4)cc1`
(A) MEDIUM

(Q) Quick check: band for `O=C(Nc1ccc(F)cc1)c1c2nc[nH]c(=O)c2c2n1CCC2`
(A) LOW

(Q) Quick check: band for `N#Cc1c2n(c3c(=O)n(-c4ccc(Br)cc4)cnc13)CCCC2`
(A) MEDIUM

(Q) Quick check: band for `COc1ccc(N2CC(=O)Nc3c(C#N)c4n(c3C2=O)CCC4)cc1`
(A) HIGH

(Q) Quick check: band for `Cc1nc2c(C#N)c3n(c2c(=O)n1-c1ccccc1)CCCC3`
(A) MEDIUM

(Q) Quick check: band for `Cc1nc2c(C#N)c3n(c2c(=O)n1-c1ccc(Cl)cc1)CCCC3`
(A) LOW

(Q) Quick check: band for `N#Cc1c2n(c3c(=O)n(-c4ccc(F)cc4)cnc13)CCC2`
(A) HIGH

(Q) Quick check: band for `COc1ccc(-n2c(=O)[nH]c3c(C#N)c4n(c3c2=O)CCC4)cc1`
(A) HIGH

(Q) Quick check: band for `N#Cc1c2c(n3c1CCC3)C(=O)N(c1ccc(F)cc1)CC(=O)N2`
(A) LOW

---

Answer each item with its documented IC50.
- System: NCI/ADR-RES
- Assay Method Text: Cytotoxicity against human MCF7/ADR cells assessed as reduction in cell viability incubated for 72 hrs by MTT assay
Response body: numeric value in µM, unit text excluded.

(Q) Given the entry `N#Cc1c2n(c3c(=O)n(-c4ccc(Br)cc4)cnc13)CCCC2` , report its measured IC50.
(A) 20.2

(Q) Given the entry `N#Cc1c2n(c3c(=O)n(-c4ccc(F)cc4)cnc13)CCC2` , report its measured IC50.
(A) 10.3

(Q) Given the entry `COc1ccc(-n2c(C)nc3c(C#N)c4n(c3c2=O)CCC4)cc1` , report its measured IC50.
(A) 30.5

(Q) Given the entry `Cc1nc2c(C#N)c3n(c2c(=O)n1-c1ccc(F)cc1)CCC3` , report its measured IC50.
(A) 46.9

(Q) Given the entry `N#Cc1c2n(c3c(=O)n(-c4ccc(Cl)cc4)cnc13)CCCC2` , report its measured IC50.
(A) 37.3

(Q) Given the entry `N#Cc1c2n(c3c(=O)n(-c4ccccc4)cnc13)CCCC2` , report its measured IC50.
(A) 6.01

---

Answer each item with its documented selectivity ratio.
- Assay Method Text: Selectivity index, ratio of IC50 for human MRC5 cells to IC50 for human A2780 cells
- Assay type: toxicity
- Condition Summary: MRC5 cells versus A2780 cells, read-out: Ratio IC50

(Q) Given the entry `Cc1nc2c(C#N)c3n(c2c(=O)n1-c1ccc(Cl)cc1)CCCC3` , report its measured selectivity ratio.
(A) 2.44

(Q) Given the entry `COc1ccc(-n2c(C)nc3c(C#N)c4n(c3c2=O)CCC4)cc1` , report its measured selectivity ratio.
(A) 247

(Q) Given the entry `N#Cc1c2n(c3c(=O)n(-c4ccccc4)cnc13)CCCC2` , report its measured selectivity ratio.
(A) 24.2

(Q) Given the entry `N#Cc1c2n(c3c(=O)n(-c4ccc(F)cc4)c(=O)[nH]c13)CCC2` , report its measured selectivity ratio.
(A) 0.33

(Q) Given the entry `Cc1nc2c(C#N)c3n(c2c(=O)n1-c1ccc(Br)cc1)CCCC3` , report its measured selectivity ratio.
(A) 23.2

(Q) Given the entry `COc1ccc(-n2c(=O)[nH]c3c(C#N)c4n(c3c2=O)CCC4)cc1` , report its measured selectivity ratio.
(A) 0.88

(Q) Given the entry `COc1ccc(NC(=O)c2c3nc[nH]c(=O)c3c3n2CCC3)cc1` , report its measured selectivity ratio.
(A) 0.1

(Q) Given the entry `Cc1nc2c(C#N)c3n(c2c(=O)n1-c1ccc(F)cc1)CCC3` , report its measured selectivity ratio.
(A) 18.5

(Q) Given the entry `O=C(Nc1ccc(F)cc1)c1c2nc[nH]c(=O)c2c2n1CCC2` , report its measured selectivity ratio.
(A) 0.29

(Q) Given the entry `N#Cc1c2c(n3c1CCC3)C(=O)N(c1ccc(F)cc1)CC(=O)N2` , report its measured selectivity ratio.
(A) 1.51

(Q) Given the entry `N#Cc1c2n(c3c(=O)n(-c4ccc(Cl)cc4)cnc13)CCCC2` , report its measured selectivity ratio.
(A) 4.29

(Q) Given the entry `N#Cc1c2n(c3c(=O)n(-c4ccc(F)cc4)cnc13)CCC2` , report its measured selectivity ratio.
(A) 15.6

(Q) Given the entry `N#Cc1c2n(c3c(=O)n(-c4ccc(Br)cc4)cnc13)CCCC2` , report its measured selectivity ratio.
(A) 792

(Q) Given the entry `COc1ccc(-n2cnc3c(C#N)c4n(c3c2=O)CCC4)cc1` , report its measured selectivity ratio.
(A) 15.1

(Q) Given the entry `Cc1nc2c(C#N)c3n(c2c(=O)n1-c1ccccc1)CCCC3` , report its measured selectivity ratio.
(A) 152

(Q) Given the entry `COc1ccc(N2CC(=O)Nc3c(C#N)c4n(c3C2=O)CCC4)cc1` , report its measured selectivity ratio.
(A) 1.52

---

Answer each item with its documented inhibition at 72 h, 1 µM.
- Test System: P-gp (ABCB1) (Homo sapiens)
- Sequence (P08183 whole entry): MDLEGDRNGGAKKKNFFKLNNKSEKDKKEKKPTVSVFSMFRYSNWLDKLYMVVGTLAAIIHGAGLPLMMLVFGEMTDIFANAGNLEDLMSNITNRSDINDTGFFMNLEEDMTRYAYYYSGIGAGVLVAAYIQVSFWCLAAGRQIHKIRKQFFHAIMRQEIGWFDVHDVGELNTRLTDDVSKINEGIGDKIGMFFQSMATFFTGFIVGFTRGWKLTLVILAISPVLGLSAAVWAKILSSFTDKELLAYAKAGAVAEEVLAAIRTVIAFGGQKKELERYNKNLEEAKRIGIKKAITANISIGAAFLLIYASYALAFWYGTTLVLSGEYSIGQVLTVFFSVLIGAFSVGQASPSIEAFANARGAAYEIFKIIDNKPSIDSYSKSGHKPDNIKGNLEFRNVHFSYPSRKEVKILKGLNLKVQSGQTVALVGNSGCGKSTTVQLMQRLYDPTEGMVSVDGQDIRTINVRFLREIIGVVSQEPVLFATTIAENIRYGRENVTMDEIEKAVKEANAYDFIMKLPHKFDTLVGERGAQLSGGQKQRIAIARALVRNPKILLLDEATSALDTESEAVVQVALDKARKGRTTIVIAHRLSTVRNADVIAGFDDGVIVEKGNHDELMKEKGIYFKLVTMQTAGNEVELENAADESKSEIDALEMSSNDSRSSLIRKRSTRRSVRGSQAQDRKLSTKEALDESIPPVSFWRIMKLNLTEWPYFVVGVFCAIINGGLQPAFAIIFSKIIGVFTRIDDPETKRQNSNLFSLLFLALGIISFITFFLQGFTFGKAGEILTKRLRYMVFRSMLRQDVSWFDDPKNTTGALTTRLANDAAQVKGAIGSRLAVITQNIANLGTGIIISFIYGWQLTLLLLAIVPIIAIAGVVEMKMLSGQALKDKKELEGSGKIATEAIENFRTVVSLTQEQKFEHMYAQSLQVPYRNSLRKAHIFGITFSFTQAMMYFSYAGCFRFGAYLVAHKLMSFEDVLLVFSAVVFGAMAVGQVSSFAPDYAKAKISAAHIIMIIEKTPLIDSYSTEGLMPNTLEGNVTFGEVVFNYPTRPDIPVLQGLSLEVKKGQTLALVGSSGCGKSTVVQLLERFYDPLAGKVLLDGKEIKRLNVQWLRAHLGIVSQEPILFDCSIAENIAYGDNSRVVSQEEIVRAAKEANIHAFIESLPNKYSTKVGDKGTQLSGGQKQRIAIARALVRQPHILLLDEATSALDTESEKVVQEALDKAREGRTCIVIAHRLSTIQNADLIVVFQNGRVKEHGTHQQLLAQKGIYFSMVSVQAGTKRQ
- Assay Method Text: Inhibition of P-gp activity in human MCF7/ADR cells at 1000 nM after 72 hrs by RT-PCR analysis relative to control
- Assay type: cell-based, NCI/ADR-RES
- Condition Summary: MCF7/ADR cells
Response body: numeric value in %, unit text excluded.

(Q) Given the entry `N#Cc1c2n(c3c(=O)n(-c4ccc(Br)cc4)cnc13)CCCC2` , report its measured inhibition at 72 h, 1 µM.
(A) 90

(Q) Given the entry `N#Cc1c2n(c3c(=O)n(-c4ccc(F)cc4)cnc13)CCC2` , report its measured inhibition at 72 h, 1 µM.
(A) 92

---

- Test System: P-gp (ABCB1) (Homo sapiens)
- Assay Method Text: Inhibition of P-gp activity in human MCF7/ADR cells at 125 nM after 72 hrs by RT-PCR analysis relative to control
- Type: cell-based, NCI/ADR-RES
Observable: inhibition at 72 h, 0.125 µM (%)
Response body: numeric value in %, unit text excluded.

(Q) Given the entry `N#Cc1c2n(c3c(=O)n(-c4ccc(Br)cc4)cnc13)CCCC2` , report its measured inhibition at 72 h, 0.125 µM.
(A) 5

(Q) Given the entry `N#Cc1c2n(c3c(=O)n(-c4ccc(F)cc4)cnc13)CCC2` , report its measured inhibition at 72 h, 0.125 µM.
(A) 9
